Origin of measurements: patent US20240132461A1

# assayedSystem: UniProt:Q86V86
metric: Kd (nM)

In [3]: df
Out[3]:
                       smilesrepresentation  metric  measuredvalue
0  COc1c(O)ccc2c(=O)cc(-c3ccc(CNCCCCNCCCN)cc3)oc12      Kd            430

====

# System: K562
# methodNotes: Cell viability assay, leukaemia cell line K562
# Type: cell-based
# setupConditions: Homo sapiens
metric: IC50 (µM)

>>> df
                       smilesrepresentation  assayedsystem  metric  measuredvalue
0  COc1c(O)ccc2c(=O)cc(-c3ccc(CNCCCCNCCCN)cc3)oc12           K562    IC50           3.48
